Cited source: paper PMC7158045

- EXPERIMENTAL TARGET: ZmDRIK1-R187-P492 (Zea mays, UniProt C0P4K9)
- Construct: kinase domain, R187-P492
- MEASUREMENT DESCRIPTION: biochemical
- ASSAY SETUP: read-out: dTm B, DSF, Boltzmann fit, 0.1% DMSO
REPORTED METRIC: ΔTm at 10 µM (°C)
Expressed in °C, but write only the number.

>  <MOLECULE>
S=C(NCc1ccc2c(c1)OCO2)N1CCN(c2ncnc3c2oc2ccccc23)CC1 [Amuvatinib (MP-470)]

>  <RESULT UNITS>
°C

>  <ΔTm at 10 µM>
-10.8

$$$$

Look up and state reported ΔTm at 10 µM for Oc1ccc(-c2nc(-c3ccc(F)cc3)c(-c3ccncc3)[nH]2)cc1 [SB202190 (FHPI)]
-18.3

For the molecule Cc1ccc(-c2nn(C(C)(C)C)c3ncnc(N)c23)cc1 [PP1] , report ΔTm at 10 µM.
-0.136

---

- EXPERIMENTAL TARGET: ZmDRIK1-R187-P492 (Zea mays, UniProt C0P4K9)
- Construct: kinase domain, R187-P492
- Sequence (C0P4K9 1-514): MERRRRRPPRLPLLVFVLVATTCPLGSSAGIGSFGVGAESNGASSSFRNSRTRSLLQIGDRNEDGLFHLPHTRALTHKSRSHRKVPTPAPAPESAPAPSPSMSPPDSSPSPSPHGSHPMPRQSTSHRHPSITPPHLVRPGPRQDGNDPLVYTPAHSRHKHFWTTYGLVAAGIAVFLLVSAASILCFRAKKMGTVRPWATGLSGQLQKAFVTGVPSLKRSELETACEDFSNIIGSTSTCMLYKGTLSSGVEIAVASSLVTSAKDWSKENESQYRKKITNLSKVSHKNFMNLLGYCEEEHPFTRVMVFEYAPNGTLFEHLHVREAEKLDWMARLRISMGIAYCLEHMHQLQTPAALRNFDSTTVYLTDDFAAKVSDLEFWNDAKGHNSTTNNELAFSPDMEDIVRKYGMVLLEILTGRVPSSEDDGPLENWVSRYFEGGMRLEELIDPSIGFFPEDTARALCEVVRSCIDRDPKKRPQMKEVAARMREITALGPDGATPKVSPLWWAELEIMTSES
- MEASUREMENT DESCRIPTION: biochemical
- ASSAY SETUP: read-out: dTm B, DSF, Boltzmann fit, 0.1% DMSO
Where a name gives a salt, the structure may show the parent alone.
REPORTED METRIC: ΔTm at 10 µM

>  <MOLECULE>
Cc1cc(O)c2c(c1)C(=O)c1cccc(O)c1C2=O

>  <EXPERIMENTAL TARGET>
ZmDRIK1-R187-P492 (Zea mays, UniProt C0P4K9)

>  <REPORTED METRIC>
ΔTm at 10 µM

>  <RESULT>
-0.205 °C

$$$$
>  <MOLECULE>
C#Cc1cccc(Nc2ncnc3cc(OC)c(OCCCCCCC(=O)NO)cc23)c1

>  <EXPERIMENTAL TARGET>
ZmDRIK1-R187-P492 (Zea mays, UniProt C0P4K9)

>  <REPORTED METRIC>
ΔTm at 10 µM

>  <RESULT>
-0.186 °C

$$$$
>  <MOLECULE>
COc1cc2c(Nc3ccc(NC(=O)c4ccccc4)cc3)ncnc2cc1OCCCN1CCOCC1

>  <EXPERIMENTAL TARGET>
ZmDRIK1-R187-P492 (Zea mays, UniProt C0P4K9)

>  <REPORTED METRIC>
ΔTm at 10 µM

>  <RESULT>
0.124 °C

$$$$

# return recorded ΔTm at 10 µM for input "CO[C@@H](C(=O)N1Cc2[nH]nc(NC(=O)c3ccc(N4CCN(C)CC4)cc3)c2C1)c1ccccc1"
-0.184 °C

Look up and state reported ΔTm at 10 µM for "Cc1cc(Nc2cc(N3CCN(C)CC3)nc(/C=C/c3ccccc3)n2)n[nH]1"
4.32 °C

For the molecule "Oc1ccc(Nc2nc(-c3ccc(Cl)cc3)cs2)cc1" , give its measured ΔTm at 10 µM value.
-2.86 °C

Identify measured ΔTm at 10 µM associated with "C[C@@H](Oc1cc(-n2cnc3ccc(CN4CCN(C)CC4)cc32)sc1C(N)=O)c1ccccc1C(F)(F)F"
-0.19 °C

Identify measured ΔTm at 10 µM associated with "COc1ccccc1-c1cc(Nc2cccc(CS(N)(=O)=O)c2)ncn1"
0.533 °C

Give the value of ΔTm at 10 µM reported for the following: "Cc1[nH]c(/C=C2\C(=O)Nc3ccc(S(=O)(=O)N(C)c4cccc(Cl)c4)cc32)c(C)c1C(=O)N1CCN(C)CC1"
-0.288 °C

Provide one value: measured ΔTm at 10 µM of Cc1c(CN2CCN(C(=O)[C@H](C)O)CC2)sc2c(N3CCOCC3)nc(-c3cnc(N)nc3)nc12 [GDC-0980 (RG7422)]
-0.177 °C

Give me measured ΔTm at 10 µM, please, for this molecule: "CCC(=O)Nc1cccc(Oc2nc(Nc3ccc(N4CCN(C)CC4)cc3OC)ncc2Cl)c1"
-0.432 °C

Consider the molecule "COC(=O)c1ccc2c(c1)NC(=O)/C2=C(\Nc1ccc(N(C)C(=O)CN2CCN(C)CC2)cc1)c1ccccc1" and give its recorded ΔTm at 10 µM.
-0.154 °C

Specify reported ΔTm at 10 µM for the molecule shown: C1=N/C2=N/c3ccc(OCCN4CCCC4)c(c3)COC/C=C/COCc3cccc(c3)C(=C1)N2 [Pacritinib (SB1518)]
-0.0853 °C

Supply recorded ΔTm at 10 µM for "C=CC(=O)Nc1ccc2ncnc(Nc3ccc(OCc4cccc(F)c4)c(Cl)c3)c2c1" here.
-5.11 °C

Provide one value: measured ΔTm at 10 µM of "NC(=O)c1cnc(N[C@@H]2CCCC[C@@H]2N)nc1Nc1cccc(-n2nccn2)c1"
-0.212 °C

Recall and state the measured ΔTm at 10 µM for "O=c1[nH]c2ccc(Cl)cc2c(N[C@@H]2CN3CCC2CC3)c1-c1nc2ccccc2[nH]1" .
-0.356 °C

Give the reported value of ΔTm at 10 µM for this record: "CCN1CCN(Cc2ccc(-c3cc4c(N[C@H](C)c5ccccc5)ncnc4[nH]3)cc2)CC1"
-0.159 °C

Consider the molecule "CC(=O)Nc1nc(C)c(-c2ccc(Cl)c(S(=O)(=O)NCCO)c2)s1" and give its recorded ΔTm at 10 µM.
-0.0815 °C

Entry "Cn1cc(-c2ccc3nnc(Sc4ccc5ncccc5c4)n3n2)cn1" needs its ΔTm at 10 µM filled in; supply it.
-0.0185 °C

Give me measured ΔTm at 10 µM, please, for this molecule: "CCCS(=O)(=O)Nc1ccc(F)c(C(=O)c2c[nH]c3ncc(Cl)cc23)c1F"
-0.12 °C

Find the measured ΔTm at 10 µM of "CC(C)CC(=O)Nc1n[nH]c2c1CN(C(=O)C1CCN(C)CC1)C2(C)C" and report it.
-0.158 °C

Item "Nc1ncnc2c1c(-c1cccc(OCc3ccccc3)c1)cn2[C@H]1C[C@@H](CN2CCC2)C1" : provide ΔTm at 10 µM
-0.332 °C

Determine from records and report ΔTm at 10 µM for "CNC(=O)c1ccccc1Sc1ccc2c(/C=C/c3ccccn3)n[nH]c2c1"
-0.367 °C

Specify reported ΔTm at 10 µM for the molecule shown: "CC(C)(C)c1cc(NC(=O)Nc2ccc(-c3cn4c(n3)sc3cc(OCCN5CCOCC5)ccc34)cc2)no1"
-3.69 °C

Provide measured ΔTm at 10 µM value, entry: COc1ccc(COc2cc3oc(=O)c4cc(C(C)O)ccc4c3cc2OC)cc1 (stereo not shown)
-0.229 °C

Please supply the value of reported ΔTm at 10 µM for the item "CCN(CCO)CCCOc1ccc2c(Nc3cc(CC(=O)Nc4cccc(F)c4)[nH]n3)ncnc2c1"
-0.129 °C

Give ΔTm at 10 µM for the following molecule: "CCN1/C(=C/C(C)=O)Sc2ccc(OC)cc21"
-0.291 °C

Provide only the value of recorded ΔTm at 10 µM for "C[C@H](NC(=O)/C(C#N)=C/c1cccc(Br)n1)c1ccccc1"
-2 °C

Recall and state the measured ΔTm at 10 µM for O=C(Nc1cccc(Cl)c1)Nc1ncc(CCNc2ncnc3ccsc23)s1 [SNS-314 Mesylate] .
0.159 °C

Look up and state reported ΔTm at 10 µM for "CNC(=O)c1cccc(-c2ccc3c(N4CCOC[C@@H]4C)nc(N4CCOC[C@@H]4C)nc3n2)c1"
-0.208 °C

Answer with the recorded ΔTm at 10 µM for the molecule listed here: "COc1ccc(-c2nc(N3CCOCC3)c3sc(CN(C)c4ncc(C(=O)NO)cn4)cc3n2)cn1"
-0.136 °C

---

Catalogue of compounds with associated ΔTm at 10 µM
- EXPERIMENTAL TARGET: ZmDRIK1 (DROUGHT RESPONSIVE INACTIVE KINASE 1), kinase domain (Zea mays, UniProt C0P4K9)
- Construct: gene ZEAMMB73_Zm00001d028770; ZmDRIK1-KD R187-S514 (kinase domain)
- MEASUREMENT DESCRIPTION: biochemical
- ASSAY SETUP: read-out: dTm B, sheet ZmDRIK1-R187-S514;; DSF, Boltzmann fit, 0.1% DMSO
API: value field is a number in °C; no unit string.

Observe how each entry below is paired with its result.
>  <GIVEN SMILES>
CC(C)(C)c1cc(C=C(C#N)C#N)cc(C(C)(C)C)c1O

>  <EXPERIMENTAL TARGET>
ZmDRIK1 (DROUGHT RESPONSIVE INACTIVE KINASE 1), kinase domain (Zea mays, UniProt C0P4K9)

>  <ΔTm at 10 µM, °C>
-0.564

$$$$
>  <GIVEN SMILES>
C#Cc1cccc(Nc2ncnc3cc4c(cc23)OCCOCCOCCO4)c1

>  <EXPERIMENTAL TARGET>
ZmDRIK1 (DROUGHT RESPONSIVE INACTIVE KINASE 1), kinase domain (Zea mays, UniProt C0P4K9)

>  <ΔTm at 10 µM, °C>
-0.618

$$$$
>  <GIVEN SMILES>
Cn1cc(C2=C(c3ccc(Cl)cc3Cl)C(=O)NC2=O)c2ccccc21

>  <EXPERIMENTAL TARGET>
ZmDRIK1 (DROUGHT RESPONSIVE INACTIVE KINASE 1), kinase domain (Zea mays, UniProt C0P4K9)

>  <ΔTm at 10 µM, °C>
-0.887

$$$$
>  <GIVEN SMILES>
O=C(c1ccc(Nc2nccc(-c3cc4ccccc4s3)n2)cc1)N1CCC(N2CCCC2)CC1

>  <EXPERIMENTAL TARGET>
ZmDRIK1 (DROUGHT RESPONSIVE INACTIVE KINASE 1), kinase domain (Zea mays, UniProt C0P4K9)

>  <ΔTm at 10 µM, °C>
-0.0967

$$$$
>  <GIVEN SMILES>
CC(C)(C#N)c1ccc(N2C(=O)OCc3cnc4ccc(-c5cnc6ccccc6c5)cc4c32)cc1

>  <EXPERIMENTAL TARGET>
ZmDRIK1 (DROUGHT RESPONSIVE INACTIVE KINASE 1), kinase domain (Zea mays, UniProt C0P4K9)

>  <ΔTm at 10 µM, °C>
-0.702

$$$$
>  <GIVEN SMILES>
NC1(C(=O)N[C@@H](CCO)c2ccc(Cl)cc2)CCN(c2ncnc3[nH]ccc23)CC1

>  <EXPERIMENTAL TARGET>
ZmDRIK1 (DROUGHT RESPONSIVE INACTIVE KINASE 1), kinase domain (Zea mays, UniProt C0P4K9)

>  <ΔTm at 10 µM, °C>
-0.693

$$$$

Please look at this compound and report its ΔTm at 10 µM: "COc1ccc(C(=O)Nc2sc3c(c2C(N)=O)CCCC3)cc1OC"
0.606

Report ΔTm at 10 µM for "COc1ccc(Cl)c(Nc2nc3ccccc3nc2NS(=O)(=O)c2cccc(NC(=O)C(C)(C)N)c2)c1"
-0.972
